PROCEDURE SUMMARY: Cation binding constant (log KS) for Na+ in anhydrous methanol at 25° C.
CONDITION PARAMETERS: decadic (log10) logarithm of equilibrium constant lariat ether + cation = complex
ENDPOINT NAME: Cation Binding Constants (log KS), Na^+
Simply state the number, no unit and no words.

Field request: Cation Binding Constants (log KS), Na^+ | item: CC(C)CCC[C@@H](C)[C@H]1CC[C@H]2[C@@H]3CC=C4C[C@@H](OC(=O)CN5CCOCCOCCOCCOCCOCC5)CC[C@]4(C)[C@H]3CC[C@]12C [Compound 5, Cholesteryl (4-aza-18-crown-6) acetate]
4.56

// lookup Cation Binding Constants (log KS), Na^+ for CC(C)CCC[C@@H](C)[C@H]1CC[C@H]2[C@@H]3CC=C4C[C@@H](OC(=O)N5CCOCCOCCOCCOCCOCC5)CC[C@]4(C)[C@H]3CC[C@]12C [Compound 9, N-(Cholesteryloxycarbonyl)aza-18-crown-6]
2.07

Need Cation Binding Constants (log KS), Na^+, item CC(C)CCC[C@@H](C)[C@H]1CC[C@H]2[C@@H]3CC[C@H]4C[C@@H](OC(=O)CN5CCOCCOCCOCCOCC5)CC[C@]4(C)[C@H]3CC[C@]12C [Compound 6, Cholestanyl (4-aza-15-crown-5) acetate]
4.12

Need Cation Binding Constants (log KS), Na^+ of CC(C)CCC[C@@H](C)[C@H]1CC[C@H]2[C@@H]3CC=C4C[C@@H](OC(=O)CN5CCOCCOCCOCCOCC5)CC[C@]4(C)[C@H]3CC[C@]12C [Compound 4, Cholesteryl (4-aza-15-crown-5)acetate] , thanks.
4.10
